protocol: toxicity in the rat, intravenous or oral (LD 50)
particulars: in vivo, iv
quantity measured: LD50

### Prompt Name the reported LD50 value associated with the compound NC(=O)C(CCO)N1CCCC1=O (stereo not shown) [Example 4.1]
### Response > 4000 mg/kg

* * *

Tested on: rat
protocol: active avoidance test (memory retention; paw withdrawal threshold)
Assay type: in vivo
particulars: Rattus norvegicus, sc, 24 h, read-out: Active dose
Each item that follows carries a reported log10 minimal effective dose.
// stored as log10 of minimal effective dose expressed in µmol/kg

// known answers, use as guide
CCCNC(=O)C(CCO)N1CCCC1=O (stereo not shown) [Example 6.3] | -1.00
NC(=O)CN1CCCC1=O [Compound A, 2-oxo-1-pyrrolidineacetamide, reference compound] | 1.40
O=C(C(CCO)N1CCCC1=O)N1CCOCC1 (stereo not shown) [Example 6.1] | -0.70
CCN(CC)C(=O)C(CCO)N1CCCC1=O (stereo not shown) [Example 5.3] | -0.70

### Prompt Notebook entry, rat assay: log10 minimal effective dose of O=C(NCc1ccccc1)C(CCO)N1CCCC1=O (stereo not shown) [Example 6.6] = ?
### Response 0.30

### Prompt Again, but for CCC(C(N)=O)N1CCCC1=O (stereo not drawn) [Compound B, alpha-ethyl-2-oxo-1-pyrrolidineacetamide, reference compound]
### Response 0.70

### Prompt Try the compound NC(=O)C(CCO)N1CCCC1=O (stereo not shown) [Example 4.1]
### Response 0.30

* * *

protocol: toxicity in the rat, intravenous or oral (LD 50)
particulars: in vivo, po, orally
quantity measured: LD50

### Prompt Consider the compound NC(=O)C(CCO)N1CCCC1=O (stereo not shown) [Example 4.1] and give its measured LD50.
### Response > 10000 mg/kg

* * *

System: mice
protocol: toxicity in mice, intraperitoneal (Irwin's test)
Assay type: in vivo
particulars: mice, intraperitoneal
quantity measured: Dose which brings about the death of one animal out of three in Irwin's test

CCCNC(=O)C(CCO)N1CCCC1=O (stereo not shown) | > 1368 mg/kg

### Prompt Query: Dose which brings about the death of one animal out of three in Irwin's test; subject: CCCCNC(=O)C(CCO)N1CCCC1=O (stereo not shown)
### Response > 1452 mg/kg

### Prompt // next record O=C(NCc1ccccc1)C(CCO)N1CCCC1=O (stereo not shown)
### Response 822 mg/kg

### Prompt Queued: O=C(C(CCO)N1CCCC1=O)N1CCCCC1 (stereo not shown)
### Response > 1524 mg/kg

### Prompt CC1CC(C)N(C(CCO)C(N)=O)C1=O (stereo not shown) , same question.
### Response > 1286 mg/kg

### Prompt Field entry: O=C(C(CCO)N1CCCC1=O)N1CCOCC1 (stereo not shown)
### Response > 1536 mg/kg

### Prompt Request: CC(C)NC(=O)C(CCO)N1CCCC1=O (stereo not shown)
### Response > 1368 mg/kg

### Prompt Cool, now CC1CCN(C(CCO)C(N)=O)C1=O (stereo not shown)
### Response > 1200 mg/kg

### Prompt // same read-out, input: CCN(CC)C(=O)C(CCO)N1CCCC1=O (stereo not shown)
### Response > 1452 mg/kg

### Prompt Now consider NC(=O)C(CCO)N1CCCC1=O (stereo not shown) .
### Response > 1116 mg/kg
